Assay: qHTS Assay for inhibitors of the human cytomegalovirus (HCMV); further: on the % scale 0 is the no-effect control and ±100 the full control effect
Conditions: HFF cells, HCMV-luciferase reporter, 72 h; at 57.5 µM; hits give low values
The whole screen tested about 410,000 compounds, of which about 18,000 (4.4%) were called active. Not shown: some 7% with an inconclusive outcome. This excerpt belongs to a sample that is enriched for actives.
Recorded activity change, negative = inhibition for the following compounds

{"compound": "CC1(C(=O)O)CCN1C(=O)/C=C/c1ccccc1 (stereo not given)", "measure.unit": "%", "activity change, negative = inhibition": -1.81}
{"compound": "COc1cc(C2c3cc4c(cc3C(O)C3COC(=O)C23)OCO4)cc(OC)c1OC (stereo not given)", "measure.unit": "%", "activity change, negative = inhibition": -89.9}
{"compound": "CCOC(=O)C(Cc1ccccc1)NC(=O)CCc1c(C)nc2c(c(C)nn2-c2ccc(C)c(C)c2)c1C (stereo not given)", "measure.unit": "%", "activity change, negative = inhibition": 35.7}
{"compound": "COc1cc(OC)c2c(c1)OC(=O)CC2c1cc(OC)c(OC)c(OC)c1 (stereo not given)", "measure.unit": "%", "activity change, negative = inhibition": -7.37}
{"compound": "Cc1cccc(C(=O)N2c3nc(-c4ccco4)nn3C3(CCCCC3)[C@@H]3CCCC[C@@H]32)c1", "measure.unit": "%", "activity change, negative = inhibition": -17.9}

---

Recorded activity change, negative = inhibition for the following molecules
Test: qHTS Assay for inhibitors of the human cytomegalovirus (HCMV); further: on the % scale 0 is the no-effect control and ±100 the full control effect
Details: HFF cells, HCMV-luciferase reporter, 72 h; at 57.5 µM; hits give low values
Protocol: NCGC Assay Overview: Infection with human cytomegalovirus (HCMV) continues to pose significant threats for pregnant women and immunocompromised hosts. […] This is a cell-based assay for HCMV inhibition in HFFs cells. […] At 72 h post infection cell lysates were collected and luciferase activity was determined using the Glomax-Multi + Detection System (Promega, Madison, WI). […]
About 18,000 (4.4%) of roughly 410,000 compounds were called active. Roughly 7% stayed inconclusive and do not appear here. Many of the other results were omitted from the sample, so actives are more common in it than they were.
measure: activity change, negative = inhibition (%)

{"molecule": "COc1ccc(CN2C(=O)CC(Cc3ccc(C)cc3)C2=O)cc1OC (stereo not given)", "recorded.value": -12.9}
{"molecule": "CCCCOc1ccc(CN2C(=O)C(=O)c3cc(Br)cc(C)c32)cc1OC", "recorded.value": -102}
{"molecule": "CCN(C(=O)CSc1nc(N)cc(=O)[nH]1)C1CCS(=O)(=O)C1 (stereo not given)", "recorded.value": -1.32}
{"molecule": "CCN(C(=O)Cn1c(=O)nc(-c2ccccc2)c2cc(Cl)ccc21)c1cccc(C)c1", "recorded.value": -20.1}
{"molecule": "Cc1cc(C)n(CC(C)NCc2c(C(=O)N3CCOCC3)nc3c(C)cccn23)n1 (stereo not given)", "recorded.value": 16}

---

Assay: qHTS Assay for inhibitors of the human cytomegalovirus (HCMV); further: on the % scale 0 is the no-effect control and ±100 the full control effect
Details: HFF cells, HCMV-luciferase reporter, 72 h; at 57.5 µM; hits give low values
The campaign covered roughly 410,000 compounds. About 18,000 (4.4%) were called active. Roughly 7% stayed inconclusive and do not appear here. Shown is part of a subset that was picked to be rich in actives.

{"molecule": "CC(C)(C)c1ccc(CN2C(=O)CN=C(c3ccccc3)c3ccccc32)cc1", "activity change, negative = inhibition, %": -79.6}
{"molecule": "CCN(CC)C(=O)C1=C(C)N(Cc2ccc(C(C)(C)C)cc2)C(=O)C(CC(=O)NCc2cccc3ccccc23)C1 (centres undefined)", "activity change, negative = inhibition, %": 16.5}
{"molecule": "COc1ccc(N(CC(=O)N/N=C/c2cccs2)S(=O)(=O)c2ccc(OC)c(OC)c2)cc1", "activity change, negative = inhibition, %": 3.94}
{"molecule": "COc1ccc(C(=O)NCC(=O)N/N=C/c2ccc([N+](=O)[O-])s2)cc1OC", "activity change, negative = inhibition, %": -92.4}
{"molecule": "COc1ccc(CN2C(=O)CN=C2Nc2ccc(C)cc2C)cc1", "activity change, negative = inhibition, %": 1.11}
{"molecule": "N#C/C(=C/c1ccc(N2CCCCC2)o1)C(=O)NCCc1c[nH]c2ccccc12", "activity change, negative = inhibition, %": -60.4}
{"molecule": "COc1ccc(OC)c(NC(=O)C2CCCN(S(=O)(=O)c3ccc4c(c3)CCCC(=O)N4)C2)c1 (centres undefined)", "activity change, negative = inhibition, %": 5.92}
{"molecule": "Cc1cccc(NC(=O)CSc2ncc(-c3ccccc3)[nH]2)c1C", "activity change, negative = inhibition, %": 45.4}
{"molecule": "CC(C)(C)c1cc(C(=O)N/N=C/c2ccc([N+](=O)[O-])s2)n[nH]1", "activity change, negative = inhibition, %": -73.9}
